The reported numbers originate from paper PMC9174938.

- experimentalTarget: HsrA (HP1043) (Helicobacter pylori, UniProt O25684)
- Construct: gene HP_1043
- Sequence (O25684 1-223): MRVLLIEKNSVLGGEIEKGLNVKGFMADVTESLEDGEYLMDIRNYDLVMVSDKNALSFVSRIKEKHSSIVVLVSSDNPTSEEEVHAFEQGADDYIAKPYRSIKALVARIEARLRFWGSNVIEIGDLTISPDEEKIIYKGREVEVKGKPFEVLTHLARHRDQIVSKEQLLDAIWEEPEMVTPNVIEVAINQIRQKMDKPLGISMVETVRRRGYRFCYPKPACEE
- protocolDescription: isothermal titration calorimetry
- Assay type: binding
- measurementParameters: read-out: ITC^1 / Kd
Please provide measured pKd for the entries that follow.
Numbers only, as −log10 of the molar value.

Batch: pKd for all items listed.
1. CC1=C(C(=O)OCC(C)C)C(c2cc(Br)ccc2O)C2=C(CC(C)(C)CC2=O)N1 (stereo not shown) [MD6]
2. CC1=C(C(=O)OCC(C)C)C(c2cccc([N+](=O)[O-])c2)C2=C(CC(C)(C)CC2=O)N1 (stereo not shown) [MD2]
3. CC1=C(C(=O)OCC(C)C)C(c2cc(Br)cc([N+](=O)[O-])c2O)C2=C(CC(C)(C)CC2=O)N1 (stereo not shown) [MD7]
4. CC1=C(C(=O)OCc2ccccc2)C(c2cc(Br)cc([N+](=O)[O-])c2O)C2=C(CCC(C)(C)C2=O)N1 (stereo not shown) [HM6]

1: 4.60; 2: 4.80; 3: 4.64; 4: 5.27
